# Test system: AM-38;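 further: growth inhibition of AM-38 cells of human origin, read out by a cell viability assay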
# test summary: cells
# Assay type: functional, cell-based
# stated conditions: Homo sapiens
# Description: SANGER: Inhibition of human AM-38 cell growth in a cell viability assay.
pIC50: −log10 of the molar value.
readout type: pIC50

>>> test_result("Cc1n[nH]c2ccc(-c3cncc(OC[C@@H](N)Cc4c[nH]c5ccccc45)c3)cc12")
"< 5.99"
>>> test_result("C/C(O)=C(\\C#N)C(=O)Nc1cc(Br)ccc1Br")
"< 4.80"
>>> test_result("CCNc1cc(N[C@H]2CC[C@@H](O)CC2)nc(Nc2ccc3c(ccn3Cc3ccccc3)c2)n1")
"< 5.29"
>>> test_result("O=c1cc(N2CCOCC2)oc2c(-c3cccc4c3sc3ccccc34)cccc12")
"< 5.70"
>>> test_result("Cn1c(=O)n(-c2ccc(C(C)(C)C#N)cc2)c2c3cc(-c4cnc5ccccc5c4)ccc3ncc21")
7.16
